# System: S. aureus ATCC 27660 (methicillin resistant strain, MRSA)
# Assay details: MIC, NCCLS broth microdilution
# Assay type: cell-based, Staphylococcus aureus
# Condition label: D = S. aureus ATCC 27660

# Molecule, Minimum Inhibitory Concentration (MIC)
rows = [
    ("Cn1cc(NC(=O)c2cc3ccccc3cn2)cc1C(=O)Nc1cc(C(=O)Nc2cn(C)c(C(=O)NCCN3CCOCC3)n2)n(C)c1", "+++ (+++ = MIC ≦ 4)"),
    ("Cc1ccc2c(Cl)c(C(=O)Nc3cc(C(=O)Nc4cc(C(=O)Nc5cc(C(=O)NCCN6CCOCC6)n(C)c5)n(C)c4)n(C)c3)sc2c1 [Ib-20c]", "+++ (+++ = MIC ≦ 4)"),
    ("Cn1cc(NC(=O)c2cc(NC(=O)c3cc(NC(=O)c4sc5cc6c(cc5c4Cl)OCO6)cn3C)cn2C)cc1C(=O)NCCN1CCCC1 [Ib-20g]", "+++ (+++ = MIC ≦ 4)"),
]

----------
# System: S. aureus ATCC 27660 (methicillin resistant strain, MRSA)
# Assay details: MIC, NCCLS broth microdilution
# Type: cell-based, Staphylococcus aureus
# Condition label: D = S. aureus ATCC 27660
Assay metric: Minimum Inhibitory Concentration (MIC)

# Compound, Assay metric, Recorded value
records = [
    ("Cn1cc(NC(=O)c2sc3cc4c(cc3c2Cl)OCO4)cc1C(=O)NCCN1CCSCC1 [Ib-20p]", "Minimum Inhibitory Concentration (MIC)", "+++ (+++ = MIC ≦ 4)"),
    ("Cn1cc(NC(=O)c2cc(NC(=O)c3cc4ccccc4cn3)no2)cc1C(=O)OCCN1CCOCC1 [Ib-61]", "Minimum Inhibitory Concentration (MIC)", "+++ (+++ = MIC ≦ 4)"),
    ("Cc1cc(NC(=O)c2cc(NC(=O)c3cc(NC(=O)c4cc5ccccc5cn4)cn3C)cn2CCN2CCCC2)sn1 [Ib-65]", "Minimum Inhibitory Concentration (MIC)", "+++ (+++ = MIC ≦ 4)"),
]

----------
# Test system: S. aureus ATCC 27660 (methicillin resistant strain, MRSA)
# Assay details: MIC, NCCLS broth microdilution
# Type: cell-based, Staphylococcus aureus
# Condition label: D = S. aureus ATCC 27660
# From the text: […]

# Compound, Minimum Inhibitory Concentration (MIC)
data = [
    ("Cn1cc(NC(=O)c2sc3cc4c(cc3c2Cl)OCO4)cc1C(=O)NCCN1CCCCC1 [Ib-20n]", "+++ (+++ = MIC ≦ 4)"),
    ("Cn1cc(NC(=O)c2cc(NC(=O)c3cc(NC(=O)c4sc5cc([N+](=O)[O-])ccc5c4Cl)cn3C)cn2C)cc1C(=O)NCCN1CCOCC1 [Ib-20j]", "+++ (+++ = MIC ≦ 4)"),
    ("Cn1cc(NC(=O)c2cc(NC(=O)c3cc(NC(=O)c4sc5cc6c(cc5c4Cl)OCO6)cn3C)cn2C)cc1C(=O)NCCN1CCOCC1 [Ib-20d]", "+++ (+++ = MIC ≦ 4)"),
]

----------
# Tested on: S. aureus ATCC 27660 (methicillin resistant strain, MRSA)
# Assay details: MIC, NCCLS broth microdilution
# Format: cell-based, Staphylococcus aureus
# Condition label: D = S. aureus ATCC 27660
Assay metric: Minimum Inhibitory Concentration (MIC)

# Molecule, Assay target, Assay metric, Recorded value
measured = [
    ("CN(C)CCSCCn1cc(NC(=O)c2cc3ccccc3cn2)cc1C(=O)Nc1cc(C(=O)Nc2ccc3cnccc3c2)n(C)c1", "S. aureus ATCC 27660 (methicillin resistant strain, MRSA)", "Minimum Inhibitory Concentration (MIC)", "+++ (+++ = MIC ≦ 4)"),
    ("Cn1cc(NC(=O)c2cc(NC(=O)c3cc(NC(=O)c4cc5cc6c(cc5s4)OCO6)cn3C)cn2C)cc1C(=O)NCCN1CCOCC1 [Ib-20v]", "S. aureus ATCC 27660 (methicillin resistant strain, MRSA)", "Minimum Inhibitory Concentration (MIC)", "+++ (+++ = MIC ≦ 4)"),
    ("Cc1cc(NC(=O)c2cc(NC(=O)c3cc(NC(=O)c4cc5ccccc5cn4)cn3C)cn2CCCN(C)C)sn1", "S. aureus ATCC 27660 (methicillin resistant strain, MRSA)", "Minimum Inhibitory Concentration (MIC)", "+++ (+++ = MIC ≦ 4)"),
    ("Cn1cc(NC(=O)c2cc(NC(=O)c3sc4ccccc4c3Cl)cn2C)cc1C(=O)NCCN1CCC(O)CC1 [Ib-20a]", "S. aureus ATCC 27660 (methicillin resistant strain, MRSA)", "Minimum Inhibitory Concentration (MIC)", "+++ (+++ = MIC ≦ 4)"),
    ("Cn1cc(NC(=O)c2cc(NC(=O)c3sc4cc5c(cc4c3Cl)OCO5)cn2C)cc1C(=O)NCCN1CCOCC1 [Ib-20e]", "S. aureus ATCC 27660 (methicillin resistant strain, MRSA)", "Minimum Inhibitory Concentration (MIC)", "+++ (+++ = MIC ≦ 4)"),
    ("Cc1cc(NC(=O)c2cc(NC(=O)c3cc(NC(=O)c4cc5ccccc5cn4)cn3C)cn2CCN2CCOCC2)sn1", "S. aureus ATCC 27660 (methicillin resistant strain, MRSA)", "Minimum Inhibitory Concentration (MIC)", "+++ (+++ = MIC ≦ 4)"),
    ("Cn1cc(NC(=O)c2cc(NC(=O)c3cc(NC(=O)c4cc5ccccc5cn4)c[nH]3)cn2C)cc1C(=O)NCCc1ccncc1", "S. aureus ATCC 27660 (methicillin resistant strain, MRSA)", "Minimum Inhibitory Concentration (MIC)", "+++ (+++ = MIC ≦ 4)"),
]

Origin of measurements: patent US20040142971A1
